Let's look at some compounds and their measured pIC50.
- MEASURED_ON: Interleukin-1 receptor-associated kinase 4 (Homo sapiens, UniProt Q9NWZ3)
- Sequence (Q9NWZ3 whole entry): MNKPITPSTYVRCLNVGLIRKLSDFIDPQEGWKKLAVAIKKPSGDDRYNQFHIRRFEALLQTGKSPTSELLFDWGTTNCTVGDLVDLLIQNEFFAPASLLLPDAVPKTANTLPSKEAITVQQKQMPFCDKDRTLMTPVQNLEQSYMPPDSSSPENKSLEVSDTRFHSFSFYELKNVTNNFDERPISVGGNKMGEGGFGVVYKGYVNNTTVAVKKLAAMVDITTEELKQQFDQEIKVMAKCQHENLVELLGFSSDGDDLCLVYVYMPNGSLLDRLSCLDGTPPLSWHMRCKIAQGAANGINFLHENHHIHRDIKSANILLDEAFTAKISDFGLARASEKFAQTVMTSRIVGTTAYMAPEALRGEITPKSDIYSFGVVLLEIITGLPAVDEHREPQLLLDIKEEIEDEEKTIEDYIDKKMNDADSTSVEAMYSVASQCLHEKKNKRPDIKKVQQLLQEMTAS
- ASSAY_DETAILS: Inhibition Assay: The assays were performed in U-bottom 384-well plates. […] The reaction was initiated by the combination of IRAK4 with substrates and test compounds. The reaction mixture was incubated at room temperature for 60 min. and terminated by adding 45 μL of 35 mM EDTA to each sample. […] The final concentrations of reagents in the assays are ATP, 500 μM; FL-[…] peptide 1.5 μM; IRAK4, 0.6 nM; and DMSO, 1.6%.
Scale: negative log10 of molar concentration, which is what pIC50 denotes.

// CC(C)(O)[C@H](F)CNC(=O)c1cnc(Nc2ncc(C#N)cc2Cl)cc1NC1CCOCC1 : pIC50 value = 8.68

// CC(C)Nc1cc(Nc2nc(OC3CCNCC3)ncc2Cl)ncc1C(=O)NC[C@@H](F)C(C)(C)O : pIC50 value = 7.70

// CNC(=O)[C@H]1CC[C@H](NC(=O)c2cnc(Nc3ccc(C#N)cn3)cc2NC(C)C)CC1 : pIC50 value = 8.25

// CS[C@H]1CC[C@H](NC(=O)c2cnc(Nc3ncc(C#N)cc3F)cc2NC(C)C)CC1 : pIC50 value = 7.90

// CC(=O)N[C@H]1CC[C@H](NC(=O)c2cnc(Nc3ncncc3Cl)cc2NC(C)C)CC1 : pIC50 value = 7.77

// CCNC(=O)[C@H]1CC[C@H](NC(=O)c2cnc(Nc3ncc(C#N)cc3F)cc2NC(C)C)CC1 : pIC50 value = 8.03

// COC[C@H](F)CNC(=O)c1cnc(Nc2ncc(C#N)cc2F)cc1NC(C)C : pIC50 value = 7.90

// CC(C)Nc1cc(Nc2ccc(C#N)cn2)ncc1C(=O)NC1CCC(O)(c2ccnn2C)CC1 (stereo unspecified) : pIC50 value = 8.34

###

- MEASURED_ON: Interleukin-1 receptor-associated kinase 4 (Homo sapiens, UniProt Q9NWZ3)
- ASSAY_DETAILS: Inhibition Assay: The assays were performed in U-bottom 384-well plates. […] The reaction was initiated by the combination of IRAK4 with substrates and test compounds. The reaction mixture was incubated at room temperature for 60 min. and terminated by adding 45 μL of 35 mM EDTA to each sample. […] The final concentrations of reagents in the assays are ATP, 500 μM; FL-[…] peptide 1.5 μM; IRAK4, 0.6 nM; and DMSO, 1.6%.
Let's look at some molecules and their measured pIC50.
Scale: negative log10 of molar concentration, which is what pIC50 denotes.

molecule="CC(C)Nc1cc(Nc2ncc(C#N)cc2Cl)ncc1C(=O)NC1CCC(C(C)(C)O)CC1 (stereo not drawn)" measured_on="Interleukin-1 receptor-associated kinase 4 (Homo sapiens, UniProt Q9NWZ3)" observed_result=8.39
molecule=CC(C)(O)[C@H](F)CNC(=O)c1cnc(Nc2ncncc2Cl)cc1NC1CC1 measured_on="Interleukin-1 receptor-associated kinase 4 (Homo sapiens, UniProt Q9NWZ3)" observed_result=8.26

Now look at this one.
Form field pIC50 for item CC(C)(O)CNc1cc(Nc2ncc(C#N)cc2Cl)ncc1C(=O)NC[C@@H](F)C(C)(C)O on Interleukin-1 receptor-associated kinase 4 (Homo sapiens, UniProt Q9NWZ3): 8.03
